# ASSAYED_SYSTEM: Kappa-type opioid receptor (Homo sapiens) (UniProt P41145)
# Sequence (P41145 whole entry, looked up): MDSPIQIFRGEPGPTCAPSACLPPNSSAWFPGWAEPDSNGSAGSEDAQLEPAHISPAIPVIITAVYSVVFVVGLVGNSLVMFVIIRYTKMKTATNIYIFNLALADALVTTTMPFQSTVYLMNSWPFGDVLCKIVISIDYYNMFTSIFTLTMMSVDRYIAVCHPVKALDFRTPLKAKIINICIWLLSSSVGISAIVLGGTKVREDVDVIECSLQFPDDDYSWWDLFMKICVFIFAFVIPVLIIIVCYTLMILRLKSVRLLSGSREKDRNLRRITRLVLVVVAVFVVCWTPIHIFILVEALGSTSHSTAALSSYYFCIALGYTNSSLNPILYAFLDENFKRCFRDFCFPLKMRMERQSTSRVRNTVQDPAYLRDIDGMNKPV
# RUN_DESCRIPTION: blocks the human kappa opioid receptor, Maybridge compounds (AID 652031)
# CONDITION_NOTES: OPRK1 cells, antagonist mode, fluorescence readout; at 9 µM
About 70 (0.4%) of roughly 16,000 compounds were called active. No stated cut-off is given here; in the data, active means inhibition above about 50%; inactive means the rest. Only a selection was taken, and actives are over-represented in it overall.
// allowed return values: active, inactive

Request: Short answer needed: outcome of this test for "Cn1cnc(S(=O)(=O)Nc2ccc3[nH]ccc3c2)c1" ?
Result: inactive

Request: Short answer needed: outcome of this test for "N#Cc1cccnc1NNC(=O)Nc1ccc(OCc2ccccc2)cc1" ?
Result: inactive

Request: Short answer needed: outcome of this test for "c1ccc(-n2cccc2)c(N2CCCCC2)c1" ?
Result: inactive

Request: Short answer needed: outcome of this test for "CN(C)c1cccc2c1c(NC(=O)Nc1ccc(OCc3ccccc3)cc1)nn2C" ?
Result: active

Request: Short answer needed: outcome of this test for "Cn1nc(C(C)(C)C)c(NC(=O)c2sccc2Cl)c1C(C)(C)C" ?
Result: inactive

Request: Short answer needed: outcome of this test for "COc1ccc(Cc2nc(C(C)(C)C)cs2)cc1" ?
Result: inactive

Request: Short answer needed: outcome of this test for "CO/N=C(/C)c1ccc2c(c1)CCO2" ?
Result: inactive

Request: Short answer needed: outcome of this test for "Cc1ccc(C(=O)N2CCN(c3cccc4[nH]ccc34)CC2)cc1" ?
Result: inactive

Request: Short answer needed: outcome of this test for COc1ccc(COCC(O)CN2CCN(c3ccc(C(F)(F)F)cn3)CC2)cc1 (stereo not given) ?
Result: inactive

Request: Short answer needed: outcome of this test for "Cc1nc2c(ncn2-c2ccccc2)c(=O)n1NC(=O)CN1CCCC1" ?
Result: inactive

Request: Short answer needed: outcome of this test for "CSc1sc(C(=O)Nc2cccc(Cl)c2)c(-c2cccs2)c1C#N" ?
Result: inactive

Request: Short answer needed: outcome of this test for "O=C(CCc1ccc(O)cc1)N/N=C/c1cc(Cl)cc(Cl)c1O" ?
Result: inactive

Request: Short answer needed: outcome of this test for "Cc1nn(S(=O)(=O)c2ccc(Cl)cc2)cc1-c1ccccc1" ?
Result: inactive

Request: Short answer needed: outcome of this test for "N#Cc1ccc(Oc2ccc(Cl)cc2)c([N+](=O)[O-])c1" ?
Result: inactive

Request: Short answer needed: outcome of this test for "CSc1nnc(-c2ccc(C(F)(F)F)cn2)o1" ?
Result: inactive

Request: Short answer needed: outcome of this test for "CC(=O)c1cc([N+](=O)[O-])c(NC2CCCCC2)s1" ?
Result: inactive

Request: Short answer needed: outcome of this test for "CSc1nc(-n2nc(C)cc2C)nc(-c2ccco2)c1C#N" ?
Result: inactive

Request: Short answer needed: outcome of this test for "COC(=O)c1cccc(CSc2ncccc2C(=O)O)c1" ?
Result: inactive

Request: Short answer needed: outcome of this test for "O=C1C(Cl)=C(Oc2cc(Cl)c(Cl)cc2Cl)C(=O)c2ccccc21" ?
Result: inactive

Request: Short answer needed: outcome of this test for "O=C(O)c1nccnc1C(=O)NCCSCc1c(F)cccc1Cl" ?
Result: inactive

Request: Short answer needed: outcome of this test for "O=c1oc2c3ccccc3c3oc(=O)sc3c2s1" ?
Result: inactive

Request: Short answer needed: outcome of this test for "CSc1sc(C(N)=O)cc1C#N" ?
Result: inactive

Request: Short answer needed: outcome of this test for "Cc1cc(/C(N)=N/OC(=O)c2cccs2)c(-c2ccccc2)o1" ?
Result: inactive

Request: Short answer needed: outcome of this test for "CSc1nc(N/C=C(\C#N)C(=O)c2cccs2)n2nc(C)cc2n1" ?
Result: inactive

Request: Short answer needed: outcome of this test for "O=c1cc(-c2ccccc2)sc2ccc(Cl)cc12" ?
Result: inactive
